Target: dopamine D1 receptor (Macaca mulatta (Rhesus macaque), UniProt O77680)
Sequence (O77680 whole entry): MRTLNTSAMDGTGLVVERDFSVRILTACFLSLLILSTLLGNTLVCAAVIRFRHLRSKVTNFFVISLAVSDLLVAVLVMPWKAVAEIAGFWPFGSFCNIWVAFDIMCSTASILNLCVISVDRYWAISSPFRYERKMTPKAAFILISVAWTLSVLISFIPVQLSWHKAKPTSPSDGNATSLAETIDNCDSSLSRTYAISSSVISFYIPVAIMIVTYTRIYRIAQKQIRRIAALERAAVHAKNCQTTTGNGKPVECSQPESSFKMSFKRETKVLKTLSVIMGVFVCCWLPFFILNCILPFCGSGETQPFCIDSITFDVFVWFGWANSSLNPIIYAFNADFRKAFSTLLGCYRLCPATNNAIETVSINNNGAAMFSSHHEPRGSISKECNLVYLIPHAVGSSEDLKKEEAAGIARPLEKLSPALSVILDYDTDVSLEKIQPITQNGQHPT
Experiment: Affinity on dopamine D1 receptor, competition with [3H] SCH23390
Format: binding
Quantity name: IC50 (nM)

As a guide, the following entries are already answered.
Measured IC50 (dopamine D1 receptor (Macaca mulatta (Rhesus macaque), UniProt O77680)), entry COc1cc2c(cc1OC)[C@@H]1Cc3cc(OC)c(OC)c(OC)c3CN1CC2 : 648

Measured IC50 (dopamine D1 receptor (Macaca mulatta (Rhesus macaque), UniProt O77680)), entry COc1cc2c(cc1OC)C1Cc3c(OC)ccc(OC)c3CN1CC2 (racemic) : 370

Measured IC50 (dopamine D1 receptor (Macaca mulatta (Rhesus macaque), UniProt O77680)), entry COc1cc2c(c(OC)c1)CN1CCc3cc(OC)c(O)cc3[C@@H]1C2 : 9.85

Measured IC50 (dopamine D1 receptor (Macaca mulatta (Rhesus macaque), UniProt O77680)), entry COc1cc2c(cc1OC)C1Cc3cc(O)c(O)cc3CN1CC2 (racemic) : 1010

Measured IC50 (dopamine D1 receptor (Macaca mulatta (Rhesus macaque), UniProt O77680)), entry COc1ccc(OC)c2c1C[C@H]1c3cc4c(cc3CCN1C2)OCCO4 : 49.2

Measured IC50 (dopamine D1 receptor (Macaca mulatta (Rhesus macaque), UniProt O77680)), entry c1c2c(cc3c1OCO3)CN1CCc3cc4c(cc3[C@@H]1C2)OCO4 : 300

Measured IC50 (dopamine D1 receptor (Macaca mulatta (Rhesus macaque), UniProt O77680)), entry COc1cc2c(c(OC)c1)CN1CCc3cc(OC)c(OC)cc3[C@@H]1C2 : 114

Measured IC50 (dopamine D1 receptor (Macaca mulatta (Rhesus macaque), UniProt O77680)), entry COc1ccc(OC)c2c1C[C@H]1c3cc4c(cc3CCN1C2)OCO4 : 47.9

Measured IC50 (dopamine D1 receptor (Macaca mulatta (Rhesus macaque), UniProt O77680)), entry COc1cc(OC)c2c(c1CO)C[C@H]1c3cc4c(cc3CCN1C2)OCO4 : 324

Measured IC50 (dopamine D1 receptor (Macaca mulatta (Rhesus macaque), UniProt O77680)), entry COc1ccc(OC)c2c1C[C@H]1c3cc(O)c(O)cc3CCN1C2 : 13.3

I. COc1cc2c(cc1OC)C1Cc3cc(C)cc(C)c3CN1CC2 (racemic)
II. COc1c(O)ccc2c1CN1CCc3cc4c(cc3[C@@H]1C2)OCCO4
III. COc1cc2c(cc1OC)[C@@H]1Cc3c(OC)ccc(OC)c3CN1CC2
Query: List the 3 entries from lowest IC50 to highest IC50 value. List the labels, following the order given in the request.
Reply: II, III, I

1. COc1cc2c(cc1OC)[C@@H]1Cc3cc(C)cc(C)c3CN1CC2
2. COc1cc2c(cc1O)[C@@H]1Cc3cc4c(cc3CN1CC2)OCO4
3. COc1cc2c(c(OC)c1)CN1CCc3cc4c(cc3[C@@H]1C2)OCO4
Query: List the 3 entries from lowest IC50 to highest IC50 value. List the labels, following the order given in the request.
Reply: 2, 3, 1
